- Test system: A2780 Human Carcinoma Cells
- method-description: Glucose displacement assay (ATP measurement, CellTiter-Glo)
- Format: cell-based
- study-conditions: ATP measurement in A2780 cells, 0.5 μM rotenone, 10 mM glucose, read-out: IC50 [μM] at 10 mM glucose
Catalogue of IC50 values
Output spec: scalar in µM, unitless text.

For orientation, consider the following solved cases.
COc1cc(OCc2cccc(CNC(=O)CCCCCCC(=O)OC(C)(C)C)c2)c(Cl)cc1C(=O)N[C@H]1[C@@H](OC)O[C@H](CO)[C@@H](O)[C@@H]1O 19.5
COc1cc(OCc2cccc(NC(=O)CCCCCCC(=O)OC(C)(C)C)c2)c(Cl)cc1C(=O)N[C@H]1[C@@H](OC)O[C@H](CO)[C@@H](O)[C@@H]1O 7.8
COc1cc(OCc2cccc(CNC(=O)CCC(=O)OC(C)(C)C)c2)c(Cl)cc1C(=O)N[C@H]1[C@@H](OC)O[C@H](CO)[C@@H](O)[C@@H]1O 25.4

Here's the next entry for you.
Fill in the recorded IC50 for this compound, with A2780 Human Carcinoma Cells as test system: `COc1cc(OCc2ccc3c(c2)nnn3C)c(Cl)cc1C(=O)O[C@H]1[C@@H](OC)O[C@H](CO)[C@@H](O)[C@@H]1O`
4.55
